Below: a set of entries, each annotated with reported OD600 change.
TEST SUMMARY: GFP drop in mixed WT/humanized-ribosome E. coli culture – GFP/RFP fluorescence, OD600, single point, bacterial rRNA inhibitor project, primary screen (AID 720706)
CONDITION DETAILS: E. coli WT GFP vs humanized-ribosome RFP mutants, 24 h; measured here: OD600 growth, DMSO median 0, no signal -100
In all, about 350,000 compounds went through this assay and about 5,500 (1.6%) were called active. The sample as a whole holds a higher share of actives than the screen did.
REPORTED PROPERTY: OD600 change (%)

[[record]]
compound = "C[C@@H]1CN([C@@H](C)CO)C(=O)c2cc(-c3ccc(F)cc3)cnc2O[C@H]1CN(C)C(=O)c1ccncc1"
measure_unit = "%"
measured_value = 18.3

[[record]]
compound = "O=C(CCc1c[nH]c2ccccc12)NCCOc1ccccc1"
measure_unit = "%"
measured_value = 3.6

[[record]]
compound = "CS(=O)(=O)N(CC(=O)N1CCc2ccccc2C1)c1ccc(Br)cc1"
measure_unit = "%"
measured_value = -11

[[record]]
compound = "O=C(COC(=O)c1ccc(Br)o1)NC12CC3CC(CC(C3)C1)C2"
measure_unit = "%"
measured_value = -7.12

[[record]]
compound = "O=S(=O)(NCCOc1cccc2cccnc12)c1ccc(F)cc1"
measure_unit = "%"
measured_value = -16

[[record]]
compound = "O=C(C[C@@H]1CC[C@@H](NC(=O)C2CCOCC2)[C@H](CO)O1)Nc1ccc(-c2ccccc2)cc1"
measure_unit = "%"
measured_value = -2.81

[[record]]
compound = "O=C(COC(=O)Cc1c[nH]c2ccccc12)NCCc1ccccc1"
measure_unit = "%"
measured_value = -7.07

[[record]]
compound = "O=S(=O)(NCCc1ccc(F)cc1)c1cccc2cccnc12"
measure_unit = "%"
measured_value = -23

[[record]]
compound = "OCc1ccc(OCCCOc2cccc3cccnc23)cc1"
measure_unit = "%"
measured_value = -8.81

[[record]]
compound = "O=C(NCCc1c[nH]c2ccccc12)C1CCN(Cc2ccc(Br)cc2)CC1"
measure_unit = "%"
measured_value = -78.6

[[record]]
compound = "COc1ccc(CNC(=O)C2CCN(C(=O)c3ccco3)CC2)cc1"
measure_unit = "%"
measured_value = 2.41

[[record]]
compound = "CCCNC(=O)C[C@H]1CC[C@H]2[C@@H](COC[C@H](O)CN2C(=O)Nc2c(C)noc2C)O1"
measure_unit = "%"
measured_value = 7.33

[[record]]
compound = "O=C(COC(=O)c1ccc([N+](=O)[O-])o1)NC12CC3CC(CC(C3)C1)C2"
measure_unit = "%"
measured_value = 9.91

[[record]]
compound = "COc1ccc(NC(=O)Nc2ccc3c(c2)C(=O)N([C@H](C)CO)C[C@H](C)[C@@H](CN(C)Cc2ccc(C(=O)O)cc2)OCCCC[C@H](C)O3)cc1"
measure_unit = "%"
measured_value = -1.43

[[record]]
compound = "COc1ccc(NC(=O)N(C)C[C@@H]2OCCCC[C@@H](C)Oc3ccc(NS(=O)(=O)c4cn(C)cn4)cc3C(=O)N([C@@H](C)CO)C[C@H]2C)cc1"
measure_unit = "%"
measured_value = -4.49

[[record]]
compound = "N#Cc1cccc(-c2ccc(C3[C@@H]4CNC[C@H]3N4)cc2)c1 (stereo not given in full)"
measure_unit = "%"
measured_value = 6.2

[[record]]
compound = "CCC(CC)c1nnc(NC(=O)C2CCN(C(=O)c3ccco3)CC2)s1"
measure_unit = "%"
measured_value = -16.6

[[record]]
compound = "CO[C@@H]1CN(C)C(=O)c2ccc(NC(=O)Nc3cc(F)ccc3F)cc2OC[C@@H](C)N(C)C[C@@H]1C"
measure_unit = "%"
measured_value = -19.5

[[record]]
compound = "COc1ccc(N(CC(=O)N2CCCCCC2)S(=O)(=O)c2ccccc2)cc1"
measure_unit = "%"
measured_value = -4.39

[[record]]
compound = "COc1ccccc1CC(=O)NCCc1c[nH]c2ccccc12"
measure_unit = "%"
measured_value = -2.84

